Biological target: Trypsin (Homo sapiens, UniProt P07477+P07478+P35030)
Assay: Proteolytic stability of compound assessed as trypsin (unknown origin) mediated drug degradation by measuring half life measured at 10 to 60 mins by HPLC analysis
Type: ADME, protein assay
Conditions: time 10-60 min
Positions of bridges follow the written chain, without caps; N, C: chain ends. Non-standard residues stand in square brackets, D forms with d. Residues, ends and D or L forms follow the SMILES beside them. S5 = C=CCCC[C@](C)(N)C(=O)O; Nle = CCCC[C@H](N)C(=O)O; Orn = NCCC[C@H](N)C(=O)O; Dab = NCC[C@H](N)C(=O)O; Dap = NC[C@H](N)C(=O)O
Please provide measured half-life for the entries that follow.
Use h as the unit, but write only the number.

State the recorded half-life for this entry: CCCC[C@@H]1NC(=O)[C@H](CCN)NC(=O)[C@H](Cc2c[nH]c3ccccc23)NC(=O)[C@@](C)(NC(=O)[C@@H](N)CCN)CCC/C=C/CCC[C@@](C)(C(=O)N[C@@H](CCN)C(N)=O)NC1=O (H-[Dab][S5]W[Dab][Nle][S5][Dab]-NH2; staple (E) 2-6)
4.82

GET /values?readout=half-life&item= CCCC[C@@H]1NC(=O)[C@H](CCCN)NC(=O)[C@H](Cc2c[nH]c3ccccc23)NC(=O)[C@@](C)(NC(=O)[C@@H](N)CCCN)CCC/C=C/CCC[C@@](C)(C(=O)N[C@@H](CCCN)C(N)=O)NC1=O (H-[Orn][S5]W[Orn][Nle][S5][Orn]-NH2; staple (E) 2-6)
4.3

# lookup: half-life of CCCC[C@@H]1NC(=O)[C@H](CCCCN)NC(=O)[C@H](Cc2c[nH]c3ccccc23)NC(=O)[C@@](C)(NC(=O)[C@@H](N)CCCCN)CCC/C=C/CCC[C@@](C)(C(=O)N[C@@H](CCCCN)C(N)=O)NC1=O (H-K[S5]WK[Nle][S5]K-NH2; staple (E) 2-6)
1.33

What value of half-life has been recorded for this entry: CCCC[C@@H]1NC(=O)[C@H](CN)NC(=O)[C@H](Cc2c[nH]c3ccccc23)NC(=O)[C@@](C)(NC(=O)[C@@H](N)CN)CCC/C=C/CCC[C@@](C)(C(=O)N[C@@H](CN)C(N)=O)NC1=O (H-[Dap][S5]W[Dap][Nle][S5][Dap]-NH2; staple (E) 2-6)
6.38

====

Molecular target: Trypsin (Homo sapiens, UniProt P07477+P07478+P35030)
Test: Proteolytic stability of compound assessed as trypsin (unknown origin) mediated drug degradation measured at 10 to 60 mins by HPLC analysis
Assay type: ADME, protein assay
Conditions: time 10-60 min, read-out: Drug degradation
Positions of bridges follow the written chain, without caps; N, C: chain ends. Non-standard residues stand in square brackets, D forms with d. Residues, ends and D or L forms follow the SMILES beside them. S5 = C=CCCC[C@](C)(N)C(=O)O; Nle = CCCC[C@H](N)C(=O)O
OBSERVATION_TYPE: metabolised

// query metabolised value for entry CCCC[C@@H]1NC(=O)[C@H](CCCCN)NC(=O)[C@H](Cc2c[nH]c3ccccc23)NC(=O)[C@@](C)(NC(=O)[C@@H](N)CCCCN)CCC/C=C/CCC[C@@](C)(C(=O)N[C@@H](CCCCN)C(N)=O)NC1=O (H-K[S5]WK[Nle][S5]K-NH2; staple (E) 2-6)
> 40%
